study-target: Aldehyde dehydrogenase, mitochondrial (Homo sapiens)
method-summary: qHTS for Inhibitors of the Aldehyde Dehydrogenase Family (ALDH2) Primary screen (AID 2061308); further: nearly all actives have a fitted effect of over 55% in size
particulars: ALDH2 enzyme inhibition qHTS, 1536-well; series mostly up to 56 µM
Results filed as inconclusive are left out. Active and inactive are the calls of the source. The call rests on the fitted dose curve; in most records, active means well fitted inhibition curve with a large enough effect; inconclusive means small, poorly fitted or top-dose-only effect; inactive means flat fitted curve, though single readings scatter.
Use one of these outcomes when replying: T (active), F (inactive)

Use the examples below as a reference point.
{"compound": "O=c1c2ccccc2nc2sc(Nc3cccc(Br)c3)nn12", "discrete-label": "F"}
{"compound": "CCCCNc1ncc2c(-c3ccc(F)cc3)nn(CC3CCC(N)CC3)c2n1 (centres undefined)", "discrete-label": "F"}
{"compound": "Cn1ccc2cc(-c3ccc4ncnc(NCc5cccs5)c4c3)ccc21", "discrete-label": "F"}
{"compound": "Cc1ccc(-c2nc(NCC(=O)Nc3cccc(C(=O)O)c3)c3ccccc3n2)cc1", "discrete-label": "F"}
{"compound": "COC(=O)c1cccc(-c2noc(-c3ccccc3F)n2)c1", "discrete-label": "F"}
{"compound": "CCNc1nc(C#N)nc2c1ncn2-c1cc(F)cc(F)c1", "discrete-label": "F"}
{"compound": "Cc1cc(C)nc(NC(=S)N2CCN(c3ncccc3C(F)(F)F)CC2)c1", "discrete-label": "F"}
{"compound": "Cn1nnnc1Sc1ncnc2scc(-c3ccccc3S(C)(=O)=O)c12", "discrete-label": "F"}

IN: Could you please tell me the result logged for `c1ccc(-c2nc(NCc3ccc(-c4cccnc4)cc3)c3ccccc3n2)cc1` in this assay?
OUT: F

IN: And for CCNC(=O)C1CCC(C(=O)Nc2ccc([S+](=O)([O-])Nc3nccs3)cc2)CC1 (centres undefined) ?
OUT: F

IN: And for `FC(F)(F)c1ccccc1-c1nc(NCc2ccc3c(c2)OCO3)c2ccccc2n1` ?
OUT: F

IN: And for `O=S(=O)(c1ccc2ccccc2c1)N1CCN(S(=O)(=O)c2c(F)cccc2F)CC1` ?
OUT: F

IN: And for `Cc1cc(C)nc(NCc2ccc(O)c3ncccc23)c1` ?
OUT: T

IN: And for `Cc1ccc(S(=O)(=O)N(C)c2ccccc2C(=O)Nc2nc(-c3ccccc3)cs2)cc1` ?
OUT: F
